Catalogue of GLC readings, one per entry.
organism: Rattus norvegicus; test: Open TG-GATES - Regimen: Single; assay type: toxicity, organism-based, Sprague-Dawley; parameters: regimen Single, gender Male, age 6 weeks; details: in vivo, po, 1000 mg/kg, 24 h, tissue Plasma, route gavage, dose level High
Quick note: give the figure in mg/dL, leave out the unit.

# molecule, property label, units of measure, assay value
rows = [
    ("CN/C(=N/CCSCc1nc[nH]c1C)NC#N [CIMETIDINE]", "GLC", "mg/dL", 206.8),
    ("CNC(=C[N+](=O)[O-])NCCSCc1ccc(CN(C)C)o1 [RANITIDINE]", "GLC", "mg/dL", 204.2),
    ("O=C(OC[C@H]1O[C@@H](OC(=O)c2cc(O)c(O)c(OC(=O)c3cc(O)c(O)c(O)c3)c2)[C@H](OC(=O)c2cc(O)c(O)c(OC(=O)c3cc(O)c(O)c(O)c3)c2)[C@@H](OC(=O)c2cc(O)c(O)c(OC(=O)c3cc(O)c(O)c(O)c3)c2)[C@@H]1OC(=O)c1cc(O)c(O)c(OC(=O)c2cc(O)c(O)c(O)c2)c1)c1cc(O)c(O)c(OC(=O)c2cc(O)c(O)c(O)c2)c1 [TANNIC ACID]", "GLC", "mg/dL", 184),
    ("Cc1nnc2n1-c1ccc(Cl)cc1C(c1ccccc1Cl)=NC2 [TRIAZOLAM]", "GLC", "mg/dL", 175.6),
]

Please examine the following record next.
INPUT: Which measured GLC value corresponds to COC(=O)C1=C(C)NC(C)=C(C(=O)OC)C1c1ccccc1[N+](=O)[O-] [NIFEDIPINE] ?
OUTPUT: 167

----------
species on record: Rattus norvegicus; assay: Open TG-GATES - Regimen: Single; assay type: toxicity, organism-based, Sprague-Dawley; parameters: regimen Single, gender Male, age 6 weeks; details: in vivo, po, 300 mg/kg, 6 h, tissue Blood, route gavage, dose level Middle
property label: Lym (%)
Note: unit % is implicit; provide only the numeric part.

Solved entries:
# molecule, property label, assay value
data = [
    ("O=C(OC[C@H]1O[C@@H](OC(=O)c2cc(O)c(O)c(OC(=O)c3cc(O)c(O)c(O)c3)c2)[C@H](OC(=O)c2cc(O)c(O)c(OC(=O)c3cc(O)c(O)c(O)c3)c2)[C@@H](OC(=O)c2cc(O)c(O)c(OC(=O)c3cc(O)c(O)c(O)c3)c2)[C@@H]1OC(=O)c1cc(O)c(O)c(OC(=O)c2cc(O)c(O)c(O)c2)c1)c1cc(O)c(O)c(OC(=O)c2cc(O)c(O)c(O)c2)c1 [TANNIC ACID]", "Lym", 75.4),
    ("Cc1nnc2n1-c1ccc(Cl)cc1C(c1ccccc1Cl)=NC2 [TRIAZOLAM]", "Lym", 77.2),
    ("COC(=O)C1=C(C)NC(C)=C(C(=O)OC)C1c1ccccc1[N+](=O)[O-] [NIFEDIPINE]", "Lym", 75),
    ("CN/C(=N/CCSCc1nc[nH]c1C)NC#N [CIMETIDINE]", "Lym", 72.4),
]

Could you now consider this next molecule?
INPUT: # get_value(readout='Lym', item= CNC(=C[N+](=O)[O-])NCCSCc1ccc(CN(C)C)o1 [RANITIDINE] )
OUTPUT: 72.6

// provenance: ChEMBL document CHEMBL3885861
